Tested on: CD2F1 mice, intracerebral P388 leukemia, median survival T/C%
Assay: NCI In Vivo Anticancer Drug Screen. Data for tumor model P388 Leukemia (intracerebral) in CD2F1 (CDF1) mice
Details: endpoint: median survival time; dose: 200.0 mg/kg/injection; schedule: Q01DX009 (ip); vehicle: saline
Inconclusive results and toxic doses are left out. Rule for the calls: active = survival T/C of 150% or more; inactive = T/C below 125% in these data.
Parameter call: string, one of active, inactive

Recorded results for 2 molecules are shown here.
Nc1ncn(C2OC(CO)C(O)C2O)c(=O)n1 (centres undefined) : active
O=C1C=CN(C2OC(CO)C(O)C2O)C(=O)C1 (centres undefined) : inactive

Outcome logged for NC(=O)c1csc(C2OC(CO)C(O)C2O)n1 (centres undefined) in this assay:
inactive

Next molecule: Nc1nc(F)nc2c1ncn2C1OC(COP(=O)(O)O)C(O)C1O (centres undefined)
active
